Hello, the source for this data is PubChem BioAssay, in case you need it.

Readings of nuclei count for the listed compounds
- PROTOCOL SUMMARY: endothelial E-selectin expression blockers – imaging, HUVEC, immunofluorescence, MLSMR starter and 10KST1 sets, primary screen (AID 487);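 note: 100% = median nuclei count of all wells on the same plate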
- CONDITIONS USED: HUVEC TNFalpha-induced E-selectin immunofluorescence imaging, at 2 µM; measured here: cell number, toxicity
Note: unit % is implicit; provide only the numeric part.

Some solved cases for reference:
# COMPOUND, MEASURED VALUE
records = [
    ("O=C(COn1nnc2ccc(C(F)(F)F)cc21)Nc1nnc(-c2ccccc2)o1", 80.2),
    ("CCOC(=O)c1ccc(CSc2ncn[nH]2)o1", 156),
    ("COc1ccc(S(=O)(=O)NCc2ccco2)cc1-c1nnc2c3ccccc3c(C)nn12", 106),
    ("CC1(C)CC(=O)C=C(N=CC2=C(O)CC(C)(C)CC2=O)C1", 174),
    ("Cc1nc2ccccc2cc1C(=O)NCc1ccco1", 126),
]

Query :: // nuclei count lookup, key: CCCC(C)C1C(C#N)=C(N)Oc2cc(C)oc(=O)c21 (configuration not stated)
Result :: 134

Query :: GET /values?readout=nuclei count&item= O=C(Cn1ccc2ccccc2c1=O)NCCC(=O)N1CCN(C2CCCCC2)CC1
Result :: 110

Query :: // nuclei count lookup, key: Cc1ccc(S(=O)(=O)N2CCOCC2)cc1C(=O)Nc1ccc(-c2cn3ccsc3n2)cc1
Result :: 122

Query :: Can you look up the measured nuclei count of CCOC(=O)N1CCC(Nc2c(-c3ccc(C)cc3)c(=O)c2=O)CC1 for me?
Result :: 106

Query :: Quick one: nuclei count for Clc1ccccc1-c1nnc2sc(-c3ccccn3)nn12 ?
Result :: 118

Query :: What value of nuclei count has been reported for the following compound? COc1ccc(-n2ncc3c(NCc4ccccn4)ncnc32)cc1
Result :: 102

Query :: Any idea what nuclei count was measured for CCNC(=O)Cn1cnc2c1c(=O)n(C)c(=O)n2C ?
Result :: 106

Query :: Can you look up the measured nuclei count of CNC(=O)CN(c1cc(C)ccc1OC)S(=O)(=O)c1ccc(C)cc1 for me?
Result :: 105

Query :: Any idea what its nuclei count is? The compound is O=c1[nH]c(=O)n([C@H]2C[C@H](O)[C@@H](CO)O2)cc1F
Result :: 116

---

- PROTOCOL SUMMARY: reduction of polyQ htt aggregates in cells – imaging, exon1htt(103Q)mCFP cells, high-content imaging, primary screen (AID 483);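 note: compound exposure lasted 3 days before fixation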;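 for nuclei count: percent of the per-plate median nuclei count of sample wells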
- CONDITIONS USED: exon1htt(103Q)mCFP cell line, aggregate imaging, at 2 µM; measured here: cell count, toxicity
MEASURED PARAMETER: nuclei count (%)
Use % as the unit, but write only the number.

# COMPOUND, UNIT, nuclei count
measured = [
    ("COC(=O)c1cn(-c2ccccc2)nc1C(=O)OC", "%", 92.6),
    ("COc1ccc(OC)c(NC(=O)C2CCN(c3cc(-c4ccccc4)nc4ncnn34)CC2)c1", "%", 95),
    ("c1c2c(cc3sc(N4CCCCC4)nc13)OCCO2", "%", 87.6),
    ("COCCn1cc(C(=O)NCCCN2CCC(C)CC2)c2c3ccccc3n(C)c2c1=O", "%", 110),
    ("CN(CC(=O)Nc1ccccc1Cl)C(=O)COC(=O)CNC(=O)c1ccc(Br)o1", "%", 115),
    ("Cc1ccnc(NC(=O)Nc2ccc(F)cc2)c1", "%", 98.7),
]

Below: the item to evaluate.
Query :: Any idea what nuclei count was measured for O=C(COC(=O)C1(c2ccccc2F)CCCC1)NC1CCS(=O)(=O)C1 (configuration not stated) ?
Result :: 124

---

Property: inhibition of aggregation; scope: individual compounds
- PROTOCOL SUMMARY: reduction of polyQ htt aggregates in cells – imaging, exon1htt(103Q)mCFP cells, high-content imaging, primary screen (AID 483);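 note: compound exposure lasted 3 days before fixation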
- CONDITIONS USED: exon1htt(103Q)mCFP cell line, aggregate imaging, at 2 µM; stronger effect = higher value
Numeric answer only, unit % assumed.

Here are 5 compounds together with their reported answers.
# COMPOUND, inhibition of aggregation / %
data = [
    ("COC(=O)c1cc(OC)c(OC)cc1NC(=O)CC1CCCCC1", 0.4),
    ("C#CCN1C(=O)C(O)(CC(=O)c2cccc(OC)c2)c2ccccc21 (stereo unspecified)", -0.5),
    ("O=c1oc(-c2ccco2)nc2ccccc12", 2.1),
    ("COc1ccc2nc(C)cc(N3CCOCC3)c2c1", -8),
    ("C=CCNC(=O)CSc1ccc(Cl)cc1", -7.8),
]

Pending compound:
Query :: Which inhibition of aggregation reading was recorded for the compound Cc1ccc(Cn2nnc3c(=O)[nH]c(C4CCN(C(=O)c5cccs5)CC4)nc32)cc1 ?
Result :: -16.4

---

- TARGET UNDER TEST: Muscarinic acetylcholine receptor M4 (Homo sapiens)
- PROTOCOL SUMMARY: M4-linked GIRK flux change, two-sided – cell-based, HEK293 M4/GIRK, thallium flux, BTC-AM, M4 allosteric agonist project, primary screen (AID 625);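 note: thallium influx through GIRK channels coupled to M4 in HEK293 cells with BTC-AM dye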
- CONDITIONS USED: at 10 µM, actives lie on both sides
Property: fluorescence slope; scope: individual compounds
Answer as a number with no unit attached.

Before answering, review these 5 worked examples.
# COMPOUND, fluorescence slope
measured = [
    ("COc1ccc(N(CC(=O)NC2CCCC2)C(=O)Cn2nnc(-c3ccc(C)cc3)n2)cc1", 0.00452),
    ("CCCOc1ccc(Cl)cc1CN1CCOCC1", 0.0115),
    ("COc1ccc(Cl)cc1NC(=O)c1oc(C)nc1C", 0.00568),
    ("O=C(NCc1ccccc1)N1CCn2c(nc3ccccc32)C1", 0.00568),
    ("O=C(O)C1CSC2c3ccccc3C(=O)N12 (stereo unspecified)", 0.00676),
]

Query :: What does the record list as fluorescence slope for Cc1ccc(NS(=O)(=O)c2cn(C)cn2)cc1 ?
Result :: 0.00531

Query :: Which fluorescence slope reading was recorded for the compound CS(=O)(=O)c1ncc(Cl)c(C(=O)Nc2ccc(N3CCOCC3)cc2)n1 ?
Result :: 0.00607

Query :: // returns reported fluorescence slope for input CN(C)c1ccc(NC(=O)CSCc2nc3c(nnn3Cc3ccc(F)cc3)c(=O)[nH]2)cc1
Result :: 0.00529

Query :: fluorescence slope lookup needed for CCNC(=O)c1ccc(NS(=O)(=O)c2ccccc2)cc1 , thanks.
Result :: 0.00291

Query :: Reported fluorescence slope for CCOC(=O)c1c(C)oc2ccc(O)c(CN(C)C)c12 : what is it?
Result :: 0.00733

Query :: So what does the record say about fluorescence slope for Cc1cc(C)n(C(=O)CNC(=O)c2ccc3c(c2)OCCO3)n1 ?
Result :: 0.00504

Query :: What does the record list as fluorescence slope for CCNc1oc(COc2cccc(C)c2)nc1C#N ?
Result :: 0.00641

Query :: Reported fluorescence slope for COc1cccc(/C(O)=C2/C(=O)C(=O)N(CCN3CCOCC3)C2c2cccnc2)c1 (stereo unspecified) : what is it?
Result :: 0.00687

---

- TARGET UNDER TEST: Muscarinic acetylcholine receptor M4 (Homo sapiens) (UniProt P08173)
- Sequence (P08173 whole entry, looked up): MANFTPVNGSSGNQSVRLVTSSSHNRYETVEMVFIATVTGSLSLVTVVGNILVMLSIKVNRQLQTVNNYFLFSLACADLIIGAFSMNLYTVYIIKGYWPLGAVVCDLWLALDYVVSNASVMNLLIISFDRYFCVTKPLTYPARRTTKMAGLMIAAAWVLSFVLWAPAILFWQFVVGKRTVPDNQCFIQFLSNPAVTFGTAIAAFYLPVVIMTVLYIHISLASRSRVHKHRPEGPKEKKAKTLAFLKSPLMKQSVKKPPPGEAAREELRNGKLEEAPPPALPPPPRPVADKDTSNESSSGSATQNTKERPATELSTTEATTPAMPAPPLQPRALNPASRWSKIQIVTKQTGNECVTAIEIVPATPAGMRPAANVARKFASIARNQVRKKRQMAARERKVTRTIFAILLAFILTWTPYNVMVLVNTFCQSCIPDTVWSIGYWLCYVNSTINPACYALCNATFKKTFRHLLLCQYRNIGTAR
- PROTOCOL SUMMARY: M4-linked GIRK flux change, two-sided – cell-based, HEK293 M4/GIRK, thallium flux, BTC-AM, M4 allosteric agonist project, primary screen (AID 625);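 note: thallium influx through GIRK channels coupled to M4 in HEK293 cells with BTC-AM dye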
- CONDITIONS USED: at 10 µM, actives lie on both sides
Each entry below lists one item and its recorded fluorescence slope value.
Hey, just send me the number, nothing else.

// known answers, use as guide
# COMPOUND, MEASURED PARAMETER, MEASURED VALUE
data = [
    ("CC(C)CC(c1nnnn1C1CCCC1)N1CCN(c2ccccc2F)CC1 (centres undefined)", "fluorescence slope", 0.00507),
    ("O=C(O)CC1CCCC(c2ccccc2)C1=O (centres undefined)", "fluorescence slope", 0.00508),
    ("CCCNS(=O)(=O)c1ccc(OCC(=O)Nc2ccccc2F)cc1", "fluorescence slope", 0.00506),
]

Consider the additional compound presented here.
Query :: Using the record for Cc1cccc(OCC(=O)Nc2ccccc2N2CCN(C(=O)C(C)C)CC2)c1C , report its fluorescence slope.
Result :: 0.00511

---

- TARGET UNDER TEST: Alpha-2C adrenergic receptor (Homo sapiens) (UniProt P18825)
- Sequence (P18825 whole entry, looked up): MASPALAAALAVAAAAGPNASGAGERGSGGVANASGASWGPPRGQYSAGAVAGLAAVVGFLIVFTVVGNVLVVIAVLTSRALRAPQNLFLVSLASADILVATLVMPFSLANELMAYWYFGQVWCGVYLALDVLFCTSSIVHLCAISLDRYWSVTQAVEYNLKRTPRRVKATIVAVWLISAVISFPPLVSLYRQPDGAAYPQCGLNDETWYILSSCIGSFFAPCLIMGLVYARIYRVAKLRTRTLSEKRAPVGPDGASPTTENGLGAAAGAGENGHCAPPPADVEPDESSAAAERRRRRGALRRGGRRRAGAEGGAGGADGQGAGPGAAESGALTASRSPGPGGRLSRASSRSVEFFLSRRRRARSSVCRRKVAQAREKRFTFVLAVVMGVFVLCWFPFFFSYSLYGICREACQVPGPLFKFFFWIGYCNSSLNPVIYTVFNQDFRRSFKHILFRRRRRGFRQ
- PROTOCOL SUMMARY: compounds altering alpha2C-coupled GIRK flux – cell-based, HEK293 alpha2C/GIRK1/2, thallium flux, primary screen (AID 624);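 note: slope of fluorescence ratio to pre-addition baseline per second over 15 to 24 s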
- CONDITIONS USED: thallium flux BTC fluorescence, at 10 µM, actives lie on both sides
slope values, listed per item
# answer = number (no unit)

See these solved cases before continuing.
# COMPOUND, MEASURED PARAMETER, MEASURED VALUE
records = [
    ("COc1ccc(OCC(=O)OCCN(C)C)cc1", "slope", 0.00493),
    ("CCC(C)(NC(=O)c1ccc(=O)[nH]c1)C(=O)NC1CCCC1 (configuration not stated)", "slope", 0.00548),
    ("CN(C)CCOC(c1ccccc1)c1ccccc1 (tested in a mixture with another compound)", "slope", 0.00507),
]

Query :: What does the record list as slope for O=C(c1ccc(F)cc1)C1CCN(CCn2c(=O)[nH]c3ccccc3c2=O)CC1 ?
Result :: 0.00505

Query :: Need slope of CN(C)C(=O)Oc1ccc[n+](C)c1 , thanks.
Result :: 0.005

Query :: I'd like to know its slope. The compound in question is CCN(CC)CCNC(=O)c1ccc(N)cc1
Result :: 0.00563

Query :: Value lookup for slope; key = OC(CCN1CCCCC1)(c1ccccc1)C1CCCCC1 (configuration not stated)
Result :: 0.00465
